Test system: SK-MEL-5 melanoma
Test: NCI-60 one-dose screen, 48 h
Details: 10 µM unless noted
About 83,000 compounds went through this panel and 20% of them were active in at least one assay; those are over-represented in the sample as a whole. Active and inactive are the calls of the source. Rule for the calls: active = growth percent below 10; inactive = the rest.
Give your call using only these classes: label 1 (active), label 0 (inactive)

Examples from the recorded data:
IN: Each compound tested received a call. Report the one for Cc1[nH]c(-c2ccc3cc[nH]c3c2)c2c1C(=O)CCCC2 .
OUT: label 0

IN: Each compound tested received a call. Report the one for O=S(=O)(Nc1ccc(OC(F)F)cc1)c1ccc(-c2cnc(C3CC3)o2)cc1 .
OUT: label 0

IN: Each compound tested received a call. Report the one for Cc1ccccc1COc1ccc(-c2onc(C)c2-c2ccc(Cl)cc2)cc1 .
OUT: label 0

IN: Each compound tested received a call. Report the one for O=[N+]([O-])c1ccccc1/C=N\NC(=S)N/N=C/c1ccccc1[N+](=O)[O-] .
OUT: label 0

IN: Each compound tested received a call. Report the one for COc1cccc(-c2nc3sccn3c2-c2ccnc(NCCCNS(=O)(=O)c3cccc(Cl)c3)c2)c1 .
OUT: label 1

Continuing:
IN: Each compound tested received a call. Report the one for C(=C\c1nccc2c1[nH]c1ccccc12)/c1ccccc1 .
OUT: label 1

IN: Each compound tested received a call. Report the one for O=C1/C(=C/c2ccccc2)SC(=S)N1CCc1ccc(O)cc1 .
OUT: label 0

IN: Each compound tested received a call. Report the one for C#Cc1cccc(NC(=O)c2ccccc2NC(=O)C=C)c1 .
OUT: label 0

IN: Each compound tested received a call. Report the one for C=C(C)C(=O)Nc1ccc(NC(C)C)cc1 .
OUT: label 0

IN: Each compound tested received a call. Report the one for COc1ccc(C(=O)COc2cccc(/C=C3\CSc4ccccc4C3=O)c2)cc1 .
OUT: label 1

---

Listing: growth of selected compounds
System: TK-10 renal
Experiment: NCI-60 one-dose screen, 48 h (100 = growth as untreated, 0 = no growth, -100 = all killed)
Conditions: 10 µM unless noted
This is part of a sample that, as a whole, favours compounds with a hit. Of some 83,000 tested, about 20% had one in any assay.
# output: bare number, implied unit %

A selection of reference data follows.
IN: # query: growth of entry COc1ccc(O)c(N=Nc2nccs2)c1
OUT: 106

IN: # query: growth of entry CN(C)CCCNc1c2ccccc2nc2ccccc12
OUT: 81.6

IN: # query: growth of entry NS(=O)(=O)c1ccc(CN=C2NC(=O)S/C2=C\c2ccc(Br)cc2)cc1
OUT: 108

Now consider a different compound.
IN: # query: growth of entry COc1cc(Nc2cc(C)nc(N3CCN(c4ccnc5cc(Cl)ccc45)CC3)n2)cc(OC)c1
OUT: 17.9

---

System: RXF 393 renal
Assay: NCI-60 one-dose screen, 48 h
Settings: 10 µM unless noted
Procedure: Cells are grown in 96 well plates and exposed to the test compound for 48 hours. Compounds are tested at a single concentration, which is 10^-5 M for most compounds. The reported endpoint is percent growth (GI% or GIPRCNT), where numbers from 0 - 100% represent growth inhibition, and numbers from -100% - 0 represent cell death. For example, a value of 40 represents 60% growth inhibition. A value of 0 means no net growth occurred over the course of the experiment. […]
Compounds without any hit were thinned out: in the full panel of roughly 83,000, 20% have a hit. Calls of active or inactive are those of the source. The calls were made as follows: active = growth percent below 10; inactive = the rest.
Give your call using only these classes: active, inactive

Examples from the recorded data:
IN: Each molecule tested received a call. Report the one for COc1ccc(NC2=C(Sc3nc(C)cc(C)n3)C(=O)N(Cc3ccccc3)C2=O)cc1Cl .
OUT: inactive

IN: Each molecule tested received a call. Report the one for CC1=CC(=NN=c2cc(C)n([O-])c(C)c2)C=C(C)[N+]1=O .
OUT: inactive

IN: Each molecule tested received a call. Report the one for COc1ccc(-c2n[nH]nc2-c2csc3ccccc23)cc1OC .
OUT: inactive

IN: Each molecule tested received a call. Report the one for CN(C)CCCNc1c2ccccc2nc2ccccc12 .
OUT: inactive

Query molecule follows.
IN: Each molecule tested received a call. Report the one for COc1cc(/C=C/c2cc(O)c3cc(C(C)=O)c(=O)oc3c2)cc2c1O[C@]1(C)CC[C@@H](O)C(C)(C)[C@H]1C2 .
OUT: active

---

Tested on: U251 CNS
Experiment: NCI-60 one-dose screen, 48 h (100 = growth as untreated, 0 = no growth, -100 = all killed)
Conditions: 10 µM unless noted
Procedure: Growth inhibition of the U251 human tumor cell line is measured as a screen for anti-cancer activity. Cells are grown in 96 well plates and exposed to the test compound for 48 hours. Compounds are tested at a single concentration, which is 10^-5 M for most compounds. The reported endpoint is percent growth (GI% or GIPRCNT), where numbers from 0 - 100% represent growth inhibition, and numbers from -100% - 0 represent cell death. For example, a value of 40 represents 60% growth inhibition. […]
This is part of a sample that, as a whole, favours compounds with a hit. Of some 83,000 tested, about 20% had one in any assay.
Just so you know, the groups by growth go like this: group 1 (below 30%), group 2 (30% to below 90%), group 3 (90% or more)

IN: For the record CC(=O)c1cc2c(N)c(C(=O)Nc3ccccc3)sc2nc1C , report the class its growth corresponds to.
OUT: group 2

IN: For the record CCOC(=O)c1sc2nc(-c3cccc(O)c3)nc(N3CCOCC3)c2c1C , report the class its growth corresponds to.
OUT: group 2

IN: For the record Cn1cc(C(=O)c2nc(-c3c[nH]c4ccc(Br)cc34)no2)c2cc(F)ccc21 , report the class its growth corresponds to.
OUT: group 3

Continuing:
IN: For the record Nc1ccc(-c2cc3c(Nc4ccc(Oc5cccc(C(F)(F)F)c5)c(Cl)c4)ncnc3s2)cc1 , report the class its growth corresponds to.
OUT: group 2

IN: For the record COc1cc2c(cc1-c1c(C)noc1C)ncc1nc(C3CCOCC3)n([C@H](C)COC(F)F)c12 , report the class its growth corresponds to.
OUT: group 2

IN: For the record CN(C)S(=O)(=O)c1cccc(-c2nc3sc4c(c3c(=O)[nH]2)CCCC4)c1 , report the class its growth corresponds to.
OUT: group 1

---

Tested on: SK-MEL-2 melanoma
Experiment: NCI-60 one-dose screen, 48 h (100 = growth as untreated, 0 = no growth, -100 = all killed)
Details: 10 µM unless noted
The panel holds about 83,000 compounds, 20% with a hit somewhere; the sample as a whole holds those more often.
MEASUREMENT TYPE: growth (%)
# output: bare number, implied unit %

A selection of reference data follows.
IN: Form field: growth recorded for COc1cc2nc(N3CCCC3)nc(NCCc3ccccc3)c2cc1OC with SK-MEL-2 melanoma (enter value)
OUT: 103

IN: Form field: growth recorded for Cc1cc(N2CCOCC2)nc(NCc2cc(Nc3ccnc4cc(Cl)ccc34)ccc2F)n1 with SK-MEL-2 melanoma (enter value)
OUT: -61.6

IN: Form field: growth recorded for Cc1cc(N2CCCC2)nc(NC2CCCC(Nc3ccnc4cc(Cl)ccc34)C2)n1 (stereo unspecified) with SK-MEL-2 melanoma (enter value)
OUT: -87.5

IN: Form field: growth recorded for CSc1nc(NCCN2CCOCC2)c(C#N)c(-c2cccc([N+](=O)[O-])c2)n1 with SK-MEL-2 melanoma (enter value)
OUT: 109

IN: Form field: growth recorded for COc1cccc(/C=C2\Oc3cc(OCCN4CCCC4)ccc3C2=O)c1 with SK-MEL-2 melanoma (enter value)
OUT: 102

Continuing:
IN: Form field: growth recorded for CCn1c(Cc2ccccc2Nc2c(Cl)cccc2Cl)nnc1SCC(=O)NN1C(=O)/C(=C/c2cc(OC)c(O)c(OC)c2)SC1=S with SK-MEL-2 melanoma (enter value)
OUT: 30.7

IN: Form field: growth recorded for O=C(CCl)Oc1ccc(-c2ccccc2)c(Br)c1 with SK-MEL-2 melanoma (enter value)
OUT: 104

IN: Form field: growth recorded for O=C(Cc1ccccc1Nc1c(Cl)cccc1Cl)NN1C(=O)/C(=C/c2ccc(Br)cc2)SC1=S with SK-MEL-2 melanoma (enter value)
OUT: 99.9

---

Tested on: NCI-H322M lung
Experiment: NCI-60 one-dose screen, 48 h (100 = growth as untreated, 0 = no growth, -100 = all killed)
Details: 10 µM unless noted
Compounds without any hit were thinned out: in the full panel of roughly 83,000, 20% have a hit.
MEASUREMENT TYPE: growth (%)
# output: bare number, implied unit %

A selection of reference data follows.
IN: # query: growth of entry COc1ccc(-c2nc3cc(C(=O)Nc4cc(OC)c(OC)c(OC)c4)ccc3n2C2CCCCC2)cc1
OUT: 97.9

IN: # query: growth of entry CC1=C[C@H]2c3c(c(O)c(O)c4oc5ccccc5c(=O)c34)[C@H](c3cc(O)c(O)c4oc5ccccc5c(=O)c34)[C@H]2C(C)(C)C1
OUT: 18.7

IN: # query: growth of entry COc1ccc(C(=O)c2sc3nc4c(c(-c5cccnc5)c3c2N)CCCC4)cc1OC
OUT: 99.5

Continuing:
IN: # query: growth of entry COc1cc2c(cc1-c1c(C)noc1C)ncc1nc(C3CCOCC3)n([C@@H](C)COC(F)F)c12
OUT: 48.3

Data credit: PubChem BioAssay (NCI)
